The entries below come with measured viability, T/C values attached.
- System: HOP-62 complex spheroids with HUVEC/MSC, viability
- PROCEDURE_SUMMARY: Anticancer human tumor HOP-62 cell line growth inhibition [RAS];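 note: spheroids exposed to agents for seven days before readout; 100% = DMSO vehicle control viability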
- RUN_PARAMETERS: second compound 1 µM; first compound 1 µM; hits give low values
Give the value in % but do not write % after it.

Known results for compounds:
{"COMPOUND": "Nc1ccn(C2OC(CO)C(O)C2(F)F)c(=O)n1 (configuration not stated) + C=CC(=O)N1CCN(c2nc(OCC3CCCN3C)nc3c(F)c(-c4nc(N)cc(C)c4C(F)(F)F)c(Cl)cc23)C(C)C1", "READOUT_LABEL": "viability, T/C", "EXPERIMENTAL_RESULT": 3.28}
{"COMPOUND": "CCN1CCN(Cc2ccc(Nc3ncc(F)c(-c4cc(F)c5nc(C)n(C(C)C)c5c4)n3)nc2)CC1 + C#Cc1c(F)ccc2cc(O)cc(-c3ncc4c(N5CC6CCC(C5)N6)nc(OCC56CCCN5CC(F)C6)nc4c3F)c12", "READOUT_LABEL": "viability, T/C", "EXPERIMENTAL_RESULT": 67.7}
{"COMPOUND": "Nc1ccn(C2OC(CO)C(O)C2(F)F)c(=O)n1 (configuration not stated) + C#Cc1c(F)ccc2cc(O)cc(-c3ncc4c(N5CC6CCC(C5)N6)nc(OCC56CCCN5CC(F)C6)nc4c3F)c12", "READOUT_LABEL": "viability, T/C", "EXPERIMENTAL_RESULT": 3.47}
{"COMPOUND": "C[C@@H](NC(=O)c1ncnc(N)c1Cl)c1ncc(C(=O)Nc2cc(C(F)(F)F)c(Cl)cn2)s1 + C=CC(=O)N1CCN(c2nc(OCC3CCCN3C)nc3c(F)c(-c4nc(N)cc(C)c4C(F)(F)F)c(Cl)cc23)C(C)C1", "READOUT_LABEL": "viability, T/C", "EXPERIMENTAL_RESULT": 63.6}
{"COMPOUND": "CC(C)NCC(C(=O)N1CCN(c2ncnc3c2C(C)CC3O)CC1)c1ccc(Cl)cc1 (configuration not stated) + C=CC(=O)N1CCN(c2nc(OCC3CCCN3C)nc3c(F)c(-c4nc(N)cc(C)c4C(F)(F)F)c(Cl)cc23)C(C)C1", "READOUT_LABEL": "viability, T/C", "EXPERIMENTAL_RESULT": 39.4}
{"COMPOUND": "C=CC(=O)Nc1cc(Nc2nccc(-c3cn(C)c4ccccc34)n2)c(OC)cc1N(C)CCN(C)C + C=CC(=O)N1CCN(c2nc(OCC3CCCN3C)nc3c(F)c(-c4nc(N)cc(C)c4C(F)(F)F)c(Cl)cc23)C(C)C1", "READOUT_LABEL": "viability, T/C", "EXPERIMENTAL_RESULT": 34.1}

Inquiry: Returns the measured viability, T/C for the input compound. Input: C=CC(=O)Nc1cc(Nc2nccc(-c3cn(C)c4ccccc34)n2)c(OC)cc1N(C)CCN(C)C + C#Cc1c(F)ccc2cc(O)cc(-c3ncc4c(N5CC6CCC(C5)N6)nc(OCC56CCCN5CC(F)C6)nc4c3F)c12
Reply text: 75.1

Inquiry: Please give the measured viability, T/C for this compound: CC(C)NCC(C(=O)N1CCN(c2ncnc3c2C(C)CC3O)CC1)c1ccc(Cl)cc1 (configuration not stated) + C#Cc1c(F)ccc2cc(O)cc(-c3ncc4c(N5CC6CCC(C5)N6)nc(OCC56CCCN5CC(F)C6)nc4c3F)c12
Reply text: 59.9

----------
- Test system: HOP-62 complex spheroids with HUVEC/MSC, viability
- PROCEDURE_SUMMARY: Anticancer human tumor HOP-62 cell line growth inhibition [RAS];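 note: spheroids exposed to agents for seven days before readout; 100% = DMSO vehicle control viability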
- RUN_PARAMETERS: second compound 1 µM; first compound 0.316 µM; hits give low values
- From the text: RAS pathway inhibitors in Combinations in Complex Spheroids A high-throughput screen of multi-cell type tumor spheroids was designed to identify active combinations of RAS pathway inhibitors and targeted small molecules. Complex spheroids include a stromal component modeled by human endothelial cells (HUVEC) and fibroblasts modeled by human mesenchymal stem cells (MSCs). […] Compounds. […] If the clinical Cmax for an agent had not been determined, the highest concentration tested was 10 microM. […]
READOUT_LABEL: viability, T/C (%)
# value in %; strip the unit string

// solved cases for viability, T/C follow
{"COMPOUND": "CC(Nc1ccc2c(c1)OCCn1cc(N3C(=O)OCC3C(F)F)nc1-2)C(N)=O (configuration not stated) + C=CC(=O)N1CCN(c2nc(OCC3CCCN3C)nc3c(F)c(-c4nc(N)cc(C)c4C(F)(F)F)c(Cl)cc23)C(C)C1", "OUTPUT_UNIT": "%", "EXPERIMENTAL_RESULT": 32.2}
{"COMPOUND": "O=C(c1ccc(F)c(F)c1Nc1ccc(I)cc1F)N1CC(O)([C@@H]2CCCCN2)C1 + C#Cc1c(F)ccc2cc(O)cc(-c3ncc4c(N5CC6CCC(C5)N6)nc(OCC56CCCN5CC(F)C6)nc4c3F)c12", "OUTPUT_UNIT": "%", "EXPERIMENTAL_RESULT": 33.2}
{"COMPOUND": "C=CC(=O)Nc1cc(Nc2nccc(-c3cn(C)c4ccccc34)n2)c(OC)cc1N(C)CCN(C)C + C#Cc1c(F)ccc2cc(O)cc(-c3ncc4c(N5CC6CCC(C5)N6)nc(OCC56CCCN5CC(F)C6)nc4c3F)c12", "OUTPUT_UNIT": "%", "EXPERIMENTAL_RESULT": 86.9}
{"COMPOUND": "CC(=O)OC12COC1CC(O)C1(C)C(=O)C(O)C3=C(C)C(OC(=O)C(O)C(NC(=O)OC(C)(C)C)c4ccccc4)CC(O)(C(OC(=O)c4ccccc4)C21)C3(C)C (configuration not stated) + C#Cc1c(F)ccc2cc(O)cc(-c3ncc4c(N5CC6CCC(C5)N6)nc(OCC56CCCN5CC(F)C6)nc4c3F)c12", "OUTPUT_UNIT": "%", "EXPERIMENTAL_RESULT": 13.1}
{"COMPOUND": "CC1(O)CCCC1n1c(=O)c(C(F)F)cc2cnc(NC3CCN(S(C)(=O)=O)CC3)nc21 (configuration not stated) + C#Cc1c(F)ccc2cc(O)cc(-c3ncc4c(N5CC6CCC(C5)N6)nc(OCC56CCCN5CC(F)C6)nc4c3F)c12", "OUTPUT_UNIT": "%", "EXPERIMENTAL_RESULT": 37.2}

Inquiry: Could you tell me which viability, T/C is on file for Cc1nc(N2CCC3(CC2)COC(C)C3N)c(CO)nc1Sc1ccnc(N)c1Cl (configuration not stated) + C=CC(=O)N1CCN(c2nc(OCC3CCCN3C)nc3c(F)c(-c4nc(N)cc(C)c4C(F)(F)F)c(Cl)cc23)C(C)C1 ?
Reply text: 26.1

Inquiry: # get_value(readout='viability, T/C', item= CCN1CCN(Cc2ccc(Nc3ncc(F)c(-c4cc(F)c5nc(C)n(C(C)C)c5c4)n3)nc2)CC1 + C=CC(=O)N1CCN(c2nc(OCC3CCCN3C)nc3c(F)c(-c4nc(N)cc(C)c4C(F)(F)F)c(Cl)cc23)C(C)C1 )
Reply text: 54.7

Inquiry: Quick one: viability, T/C of NC1c2ccccc2OC12CCN(c1cnc3c(N4CCCc5ncccc54)n[nH]c3n1)CC2 (configuration not stated) + C=CC(=O)N1CCN(c2nc(OCC3CCCN3C)nc3c(F)c(-c4nc(N)cc(C)c4C(F)(F)F)c(Cl)cc23)C(C)C1 ?
Reply text: 10.8

Inquiry: What value of viability, T/C has been reported for the following compound? CC(C)NCC(C(=O)N1CCN(c2ncnc3c2C(C)CC3O)CC1)c1ccc(Cl)cc1 (configuration not stated) + C=CC(=O)N1CCN(c2nc(OCC3CCCN3C)nc3c(F)c(-c4nc(N)cc(C)c4C(F)(F)F)c(Cl)cc23)C(C)C1
Reply text: 50.2

Inquiry: Any idea what viability, T/C was measured for CC1(O)CCCC1n1c(=O)c(C(F)F)cc2cnc(NC3CCN(S(C)(=O)=O)CC3)nc21 (configuration not stated) + C=CC(=O)N1CCN(c2nc(OCC3CCCN3C)nc3c(F)c(-c4nc(N)cc(C)c4C(F)(F)F)c(Cl)cc23)C(C)C1 ?
Reply text: 29.9

Inquiry: What value of measured viability, T/C is listed for O=C(c1ccc(F)c(F)c1Nc1ccc(I)cc1F)N1CC(O)([C@@H]2CCCCN2)C1 + C=CC(=O)N1CCN(c2nc(OCC3CCCN3C)nc3c(F)c(-c4nc(N)cc(C)c4C(F)(F)F)c(Cl)cc23)C(C)C1 ?
Reply text: 13.1

Inquiry: Could you tell me which viability, T/C is on file for CC(=O)OC12COC1CC(O)C1(C)C(=O)C(O)C3=C(C)C(OC(=O)C(O)C(NC(=O)OC(C)(C)C)c4ccccc4)CC(O)(C(OC(=O)c4ccccc4)C21)C3(C)C (configuration not stated) + C=CC(=O)N1CCN(c2nc(OCC3CCCN3C)nc3c(F)c(-c4nc(N)cc(C)c4C(F)(F)F)c(Cl)cc23)C(C)C1 ?
Reply text: 13

Provenance of the data: PubChem BioAssay AID2060892
